B1: Osa-1-4 twister ribozyme (parent)
chain: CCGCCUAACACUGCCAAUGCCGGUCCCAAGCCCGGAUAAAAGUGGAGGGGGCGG

# Variants of: B1
# experiment notes: self-cleavage, relative activity (ratio to wild type); higher = more cleavage; co-transcriptional
measured attribute: self-cleavage
One number for each entry.

Some variants with recorded self-cleavage:
C32G U12C	0.08
A7U G22A	0.09

Let's switch to this variant now.
Look up self-cleavage for this variant: A40C G49A
0.04
